Assay: Urinary excretion of phenolic metabolites after intake of the GCPE nutraceutical
Details: week 0, interval 0–3 h
readout-label: Amount excreted in urine, 0- 3 h
Answer format reminder: number followed by unit.

Past entries and their recorded results:
compound: COc1ccc(CCC(=O)O)cc1O[C@@H]1O[C@H](C(=O)O)[C@@H](O)[C@H](O)[C@H]1O [DHiFA-3′-glucuronide]
result-value: 0.12 µmol
//
compound: COc1cc(CCC(=O)O)ccc1OS(=O)(=O)O [DHFA-4′-sulfate]
result-value: 0.5 µmol

As a next step, examine the compound that follows.
I would be grateful if you could share the reported Amount excreted in urine, 0- 3 h for O=C(O)CCc1ccc(O[C@@H]2O[C@H](C(=O)O)[C@@H](O)[C@H](O)[C@H]2O)cc1 [DHCoA-4′-glucuronide, 3-(Phenyl)propanoic acid-4′-glucuronide] . 0.17 µmol

// data source = paper PMC9230201
